# Tested System: T1, ADI-48587
# T1 construct: pH-dependent anti-CD3 antibody made in CHO cells
# T1 sequence (VH, as listed by the source, chain 1 of 2): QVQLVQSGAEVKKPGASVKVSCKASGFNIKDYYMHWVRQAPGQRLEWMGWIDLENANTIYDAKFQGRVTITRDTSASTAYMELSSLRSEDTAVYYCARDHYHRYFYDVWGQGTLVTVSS
# T1 sequence (VL, as listed by the source, chain 2 of 2): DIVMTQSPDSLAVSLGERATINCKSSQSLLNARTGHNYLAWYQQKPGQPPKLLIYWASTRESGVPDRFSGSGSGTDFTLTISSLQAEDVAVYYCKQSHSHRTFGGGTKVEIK
# Assay Overview: SPR Carterra avidity, yeast anti-ID
Readout Label: pKd
Please keep in mind that pKd is minus log10 of the molar concentration; only the number is needed.

// field: pKd; key: ADI-34135 (antibody, V domains shown, anti-ID IgG) VH: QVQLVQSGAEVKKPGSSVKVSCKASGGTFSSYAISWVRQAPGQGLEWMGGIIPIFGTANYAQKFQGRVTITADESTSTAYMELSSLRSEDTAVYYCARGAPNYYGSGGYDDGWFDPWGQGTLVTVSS VL: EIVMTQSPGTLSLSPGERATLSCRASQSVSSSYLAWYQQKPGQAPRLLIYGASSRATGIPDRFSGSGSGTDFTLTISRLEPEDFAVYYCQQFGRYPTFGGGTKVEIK ; value = 8.74

// field: pKd; key: ADI-30242 (antibody, V domains shown, anti-ID IgG) VH: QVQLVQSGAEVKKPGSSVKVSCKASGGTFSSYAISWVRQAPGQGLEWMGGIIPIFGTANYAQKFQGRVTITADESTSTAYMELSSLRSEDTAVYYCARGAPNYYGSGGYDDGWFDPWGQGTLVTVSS VL: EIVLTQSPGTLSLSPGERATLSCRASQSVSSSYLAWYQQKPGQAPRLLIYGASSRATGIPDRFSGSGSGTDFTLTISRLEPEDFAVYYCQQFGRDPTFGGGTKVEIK ; value = 7.37

// field: pKd; key: ADI-34138 (antibody, V domains shown, anti-ID IgG) VH: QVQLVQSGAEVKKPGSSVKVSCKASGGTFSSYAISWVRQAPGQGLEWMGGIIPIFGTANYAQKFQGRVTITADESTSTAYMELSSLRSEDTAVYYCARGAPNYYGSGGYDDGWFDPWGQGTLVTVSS VL: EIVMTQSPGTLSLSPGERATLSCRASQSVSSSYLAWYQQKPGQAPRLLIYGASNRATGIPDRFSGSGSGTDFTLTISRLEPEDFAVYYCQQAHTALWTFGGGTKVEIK ; value = 7.54

// field: pKd; key: ADI-34137 (antibody, V domains shown, anti-ID IgG) VH: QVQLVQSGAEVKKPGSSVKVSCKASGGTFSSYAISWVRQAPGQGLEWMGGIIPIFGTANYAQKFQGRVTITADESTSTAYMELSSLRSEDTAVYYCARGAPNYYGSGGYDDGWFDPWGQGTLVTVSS VL: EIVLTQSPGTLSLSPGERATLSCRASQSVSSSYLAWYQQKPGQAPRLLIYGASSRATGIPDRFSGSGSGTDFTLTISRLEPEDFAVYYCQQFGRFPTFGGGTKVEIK ; value = 9.06
